Tested Target: indoleamine 2,3-dioxygenase (IDO) (Homo sapiens, UniProt P14902)
Construct: replaced with media containing IFNγ (#285-IF/CF, R&D Systems) at a final concentration of 25 ng/mL; endogenous in cells; host or cells: HeLa (ATCC CCL-2), IFN-gamma stimulated
Sequence (P14902 whole entry): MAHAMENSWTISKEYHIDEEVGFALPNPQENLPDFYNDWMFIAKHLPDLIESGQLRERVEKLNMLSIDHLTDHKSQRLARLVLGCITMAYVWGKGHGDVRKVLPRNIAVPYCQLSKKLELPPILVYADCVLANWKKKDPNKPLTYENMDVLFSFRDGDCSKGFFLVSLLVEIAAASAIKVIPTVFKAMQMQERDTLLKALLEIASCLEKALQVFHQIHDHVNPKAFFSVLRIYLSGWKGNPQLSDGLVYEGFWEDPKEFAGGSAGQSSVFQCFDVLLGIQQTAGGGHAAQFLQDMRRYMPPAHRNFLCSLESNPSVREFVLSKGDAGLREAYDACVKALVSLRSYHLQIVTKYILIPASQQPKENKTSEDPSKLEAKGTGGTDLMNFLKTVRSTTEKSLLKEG
Assay Remarks: HeLa cell-based indoleamine 2,3-dioxygenase (IDO) assay, kynurenine production
Condition Parameters: HeLa cells, IFNγ 25 ng/mL, 48 hour incubation; read-out: IDO Hela IC50
Reported pIC50 is given for each of the following molecules.
The meaning of pIC50 here: minus log10 of the concentration in molar units.

>  <Molecule>
CCO[C@H](c1ccc([C@H](CC)CC(=O)O)cc1Nc1cnc(OC)cn1)C(F)(F)F (single isomer, unassigned)

>  <pIC50>
8.00

$$$$

Q. I'd like to know its pIC50. The molecule in question is CCOc1ncc(Nc2cc([C@H](CC)CC(=O)O)ccc2[C@@H](OC)C(F)(F)F)cn1 (single isomer, unassigned)
A. 7.52

Q. Tell me the measured pIC50 of CCO[C@@H](c1ccc([C@H](CC)CC(=O)O)cc1Nc1cnc(OC)nc1)C(F)(F)F (single isomer, unassigned) , please.
A. 7.52

----------
Listed next: entries and their corresponding IC50.
Tested Target: indoleamine 2,3-dioxygenase (IDO) (Homo sapiens)
Construct: replaced with media containing IFNγ (#285-IF/CF, R&D Systems) at a final concentration of 25 ng/mL; endogenous in cells; host or cells: HeLa (ATCC CCL-2), IFN-gamma stimulated
Assay Remarks: HeLa cell-based indoleamine 2,3-dioxygenase (IDO) assay, kynurenine production
Condition Parameters: HeLa cells, IFNγ 25 ng/mL, 48 hour incubation; read-out: IDO Hela IC50
I only need the number, in nM, no unit after it.

>  <Compound>
CCO[C@H](c1ccc([C@H](COC)CC(=O)O)cc1Nc1ccc(Cl)cc1)C(F)(F)F (single isomer, unassigned)

>  <IC50 / nM>
20

$$$$
>  <Compound>
CC[C@@H](CC(=O)O)c1ccc([C@@H](CC)N2CCOCC2)c(Nc2cnc(C(F)(F)F)nc2)c1 (relative stereo)

>  <IC50 / nM>
90

$$$$

Q. // returns reported IC50 for input CCOc1ncc(Nc2cc([C@@H](CC)CC(=O)O)ccc2[C@H](CC)N2CCOCC2)cn1 (single isomer, unassigned) [Example 118-4]
A. 10

----------
Measured IC50 by item
Tested Target: indoleamine 2,3-dioxygenase (IDO) (Homo sapiens, UniProt P14902)
Construct: replaced with media containing IFNγ (#285-IF/CF, R&D Systems) at a final concentration of 25 ng/mL; endogenous in cells; host or cells: HeLa (ATCC CCL-2), IFN-gamma stimulated
Assay Remarks: HeLa cell-based indoleamine 2,3-dioxygenase (IDO) assay, kynurenine production
Condition Parameters: HeLa cells, IFNγ 25 ng/mL, 48 hour incubation; read-out: IDO Hela IC50
Method: Assessment of Inhibitor Activity in HeLa Cell-Based Indoleamine 23-Dioxygenase (IDO) Assay Cells were maintained in a humidified incubator at 37° C. in 5% CO2. IDO activity was assessed as a function of kynurenine production as follows: HeLa cells were seeded in a 96-well culture plate at a density of 5,000 cells/well and allowed to equilibrate overnight. […] The percentage activity at each inhibitor concentration was determined and IC50 values assessed using nonlinear regression.
Field: numeric (nM). Do not append units.

Study these solved cases before continuing.
>  <Compound>
CC[C@@H](CC(=O)O)c1ccc([C@@H](OC)C(F)(F)F)c(Nc2cnc(C(F)(F)F)nc2)c1 (single isomer, unassigned)

>  <IC50 (nM)>
10

$$$$
>  <Compound>
CC[C@H](CC(=O)O)c1ccc([C@@H](CC)C2CCOCC2)c(Nc2ccc(COC)nc2)c1 (single isomer, unassigned)

>  <IC50 (nM)>
310

$$$$
>  <Compound>
CCO[C@H](c1ccc([C@H](CC)CC(=O)O)cc1Nc1cnc(OC)nc1)C(F)(F)F (single isomer, unassigned)

>  <IC50 (nM)>
20

$$$$
>  <Compound>
CCO[C@H](c1ccc([C@@H](CC)CC(=O)O)cc1Nc1cnc(OC)nc1)C(F)(F)F (single isomer, unassigned)

>  <IC50 (nM)>
10

$$$$
>  <Compound>
CC[C@H](CC(=O)O)c1ccc([C@H](OC)C(F)(F)F)c(Nc2cnc(C(F)(F)F)nc2)c1 (single isomer, unassigned)

>  <IC50 (nM)>
10

$$$$

Q. Give indoleamine 2,3-dioxygenase (IDO) (Homo sapiens, UniProt P14902) IC50 for CCO[C@@H](c1ccc([C@H](COC)CC(=O)O)cc1Nc1cnc(OC)nc1)C(F)(F)F (single isomer, unassigned)
A. 620

Q. Recall the recorded IC50 for CCO[C@@H](c1ccc([C@@H](COC)CC(=O)O)cc1NC(=O)Nc1ccc(Cl)cc1F)C(F)(F)F (single isomer, unassigned) with indoleamine 2,3-dioxygenase (IDO) (Homo sapiens, UniProt P14902) and state it.
A. 40

----------
Tested Target: indoleamine 2,3-dioxygenase (IDO) (Homo sapiens, UniProt P14902)
Construct: replaced with media containing IFNγ (#285-IF/CF, R&D Systems) at a final concentration of 25 ng/mL; endogenous in cells; host or cells: HeLa (ATCC CCL-2), IFN-gamma stimulated
Assay Remarks: HeLa cell-based indoleamine 2,3-dioxygenase (IDO) assay, kynurenine production
Condition Parameters: HeLa cells, IFNγ 25 ng/mL, 48 hour incubation; read-out: IDO Hela IC50
Form field: pIC50 (one value per entry).
Field pIC50 (float): negative decimal logarithm of the concentration in molar.

Known results for compounds:
>  <Compound>
CCO[C@H](c1ccc([C@@H](COC)CC(=O)O)cc1Nc1ccc(C#N)cc1)C(F)(F)F (single isomer, unassigned)

>  <Quantitative Result>
8.00

$$$$
>  <Compound>
CCOc1ncc(Nc2cc([C@@H](CC)CC(=O)O)ccc2[C@@H](OCC)C(F)(F)F)cn1 (relative stereo)

>  <Quantitative Result>
8.00

$$$$
>  <Compound>
CC[C@@H](CC(=O)O)c1ccc([C@H](OC)C(F)(F)F)c(Nc2cnc(C)nc2)c1 (single isomer, unassigned)

>  <Quantitative Result>
6.82

$$$$
>  <Compound>
CC(C)CC(CC(C)C)c1ccc(-c2ccccc2-c2nn[nH]n2)cc1NC(=O)Nc1ccc(Cl)cc1F

>  <Quantitative Result>
8.00

$$$$
>  <Compound>
CC[C@H](CC(=O)O)c1ccc([C@@H](CC)N2CCOCC2)c(Nc2ccc(COC)nc2)c1 (relative stereo)

>  <Quantitative Result>
7.52

$$$$

Q. Which value of pIC50 has been reported for CC[C@H](c1ccc([C@@H](COC)CC(=O)O)cc1Nc1ccc(Cl)cc1)N1CCOCC1 (relative stereo) in the records?
A. 6.42

Q. Endpoint output: pIC50 of CCO[C@@H](c1ccc([C@H](CC)CC(=O)O)cc1Nc1cnc(OC)cn1)C(F)(F)F (relative stereo) . Value?
A. 7.52

Q. Any idea what pIC50 was measured for CCO[C@H](c1ccc([C@H](CC)CC(=O)O)cc1NC(=O)Nc1ccc(Cl)cc1F)C(F)(F)F (single isomer, unassigned) ?
A. 8.00

Q. // pIC50 lookup, key: CC[C@@H](CC(=O)O)c1ccc([C@@H](OC)C(F)(F)F)c(Nc2cnc(C)nc2)c1 (single isomer, unassigned)
A. 6.35

----------
Tested Target: human IDO1 (Homo sapiens)
Construct: expressed in transfected cells
Sequence (P14902 whole entry): as above
Assay Remarks: HEK293 cell-based indoleamine 2,3-dioxygenase (IDO) assay
Condition Parameters: human IDO1/HEK293 cells, 20 hours; read-out: IDO1 HEK Human IC50
Listed here: items and their measured pIC50.
For clarity, pIC50 is expressed as the negative log10 of concentration in mol/L.

Solved cases (3 shown):
>  <Compound>
CCO[C@H](c1ccc(F)cc1)c1cc(Nc2ccc3nc(C)sc3c2)cc([C@H](CC)CC(=O)O)c1 (single isomer, unassigned)

>  <pIC50>
6.97

$$$$
>  <Compound>
CCO[C@@H](c1ccc(F)cc1)c1cc(Nc2ccc(Cl)cc2)cc([C@H](CC)CC(=O)O)c1 (single isomer, unassigned)

>  <pIC50>
8.70

$$$$
>  <Compound>
Cc1ccc(NC(=O)Nc2cc(-c3ccccc3-c3nn[nH]n3)ccc2C(CC(C)C)CC(C)C)cc1

>  <pIC50>
7.70

$$$$

Now, please, on to the next compound.
Q. // pIC50 lookup, key: Cc1cc(NC(=O)Nc2cc(-c3ccccc3-c3nn[nH]n3)ccc2C(CC(C)C)CC(C)C)no1
A. 7.72

----------
We begin with a simple list: items and their reported pIC50.
Tested Target: indoleamine 2,3-dioxygenase (IDO) (Homo sapiens, UniProt P14902)
Construct: replaced with media containing IFNγ (#285-IF/CF, R&D Systems) at a final concentration of 25 ng/mL; endogenous in cells; host or cells: HeLa (ATCC CCL-2), IFN-gamma stimulated
Assay Remarks: HeLa cell-based indoleamine 2,3-dioxygenase (IDO) assay, kynurenine production
Condition Parameters: HeLa cells, IFNγ 25 ng/mL, 48 hour incubation; read-out: IDO Hela IC50 class (A < 50, B < 250, C < 2000)
pIC50: −log10 of the molar value.

Below are worked cases with known answers.
>  <Molecule>
CCO[C@@H](c1ccc([C@H](COC)CC(=O)O)cc1Nc1ncc(F)cn1)C(F)(F)F (single isomer, unassigned)

>  <pIC50>
5.70 to 6.60

$$$$
>  <Molecule>
CCO[C@@H](c1ccc(F)cc1)c1cc(Nc2ccc(Cl)cc2)cc([C@H](CC)CC(=O)O)c1 (single isomer, unassigned)

>  <pIC50>
> 7.30

$$$$

We next turn to a different molecule, shown below.
Q. For the molecule shown here, CCO[C@@H](c1ccc([C@@H](CC)CC(=O)O)cc1Nc1ccc(F)cc1)C(F)(F)F (single isomer, unassigned) , give the reported pIC50.
A. > 7.30
